Provide the reported cAMP production, hGLP-1R EC50 (pM) of each item.
target: human GLP-1 receptor (human, UniProt P43220); assay: cell-based or functional assay
Starred links: 1 amine or outer side, 2 acyl side, 3 side chain; linkers in the order of their positions; H or OH if unused. Non-standard residues stand in square brackets, D forms with d. Groups on a side chain read outwards from the residue. Primed or numbered codes have the meaning given here. No end group written: not given here. *: point of attachment. C20 diacid = O=C(O)CCCCCCCCCCCCCCCCCCC(=O)*; Dip = N[C@H](C(=O)O)C(c1ccccc1)c1ccccc1; γGlu = O=C(O)[C@H](CCC(=O)[*:2])N[*:1]; Palmitoyl = CCCCCCCCCCCCCCCC(=O)*; αMeF = C[C@](N)(Cc1ccccc1)C(=O)O; (PEG)2 = polyethylene glycol 2; PEG2′ = polyethylene glycol 2; AEEA = NCCOCCOCC(=O)O; Aib = CC(C)(N)C(=O)O
Answers are plain numbers, in pM.

{"columns": ["binder", "unitAnnotation", "cAMP production, hGLP-1R EC50 (pM)"],
 "data": [
  ["HSQGS[αMeF]TSDVSKILDSK([(PEG)2-(PEG)2-γGlu-Palmitoyl])AAQD[αMeF]VQ[Aib]IINT-NH2 [Peptide 121]", "pM", 1.5],
  ["H[Aib]QGS[αMeF]TSDVSK[Dip]LDSK([PEG2′-PEG2′-γGlu-Palmitoyl])AAQD[αMeF]VQ[Aib]IAN-NH2 [Peptide 67]", "pM", 2.43]
]}

Report cAMP production, hGLP-1R EC50 (pM) for H[Aib]HGS[αMeF]TSDVSK[αMeF]LDSK([AEEA-AEEA-γGlu-γGlu-C20 diacid])AAQD[αMeF]VQ[Aib]IANT-NH2 [Peptide 25]
726
